Tested on: CSNK1A1
Settings: concentration: 1 μM, replicates: in singlicate; n = 1;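 also: KINOMEscan kinase panel screen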
MEASURED PROPERTY: %Inh (%)
Numbers only; they are read as %.

IN: Respond only with %Inh recorded for COc1ccc(CNC(=O)NC2CCN(c3ccnc(Nc4ccc(OC)cc4)n3)C2)cc1 (stereo not drawn) [GSK1379727]
OUT: 0

IN: Respond only with %Inh recorded for Fc1ccc(-c2nn3c(OCC(F)(F)F)cccc3c2-c2ccncc2)cc1 [GW514784]
OUT: 92.9

IN: Respond only with %Inh recorded for Cl.Oc1cccc(Nc2ccnc3cc(-c4ccncc4)ccc23)c1 [GW494601]
OUT: 55

IN: Respond only with %Inh recorded for O=C(NCCCN1CCOCC1)c1cccc(Nc2nccc(Nc3ccc(Oc4ccccc4)cc3)n2)c1 [GW663929]
OUT: 0

IN: Respond only with %Inh recorded for CSc1ccc(-c2cc3ncnc(SCC(=O)O)c3s2)cc1
OUT: 21

IN: Respond only with %Inh recorded for Nc1nccc(-c2c(-c3ccc(F)cc3)ncn2C2CCN(CC(F)(F)F)CC2)n1 [SB-236560]
OUT: 92.7

IN: Respond only with %Inh recorded for CC(C)Oc1ccc2c(-c3ccnc(Nc4ccc(N5CCN(C)CC5)cc4)n3)cnn2n1 [GW696155]
OUT: 46

IN: Respond only with %Inh recorded for Cc1nnc(-c2ccc(C)c(-c3ccc(C(=O)Nc4ccc(NS(C)(=O)=O)cc4)cc3)c2)o1 [GW702865]
OUT: 0

IN: Respond only with %Inh recorded for C[C@@H](Oc1cc(-n2cnc3ccc(NC(=O)NC(C)(C)C)cc32)sc1C(N)=O)c1ccccc1Cl [GSK346294]
OUT: 0

IN: Respond only with %Inh recorded for O=c1cc(N2CCOCC2)nc2n(Cc3cccc4ccccc34)ccn12 [GSK2333389]
OUT: 13

IN: Respond only with %Inh recorded for Cc1nnc(-c2ccc3ncc(-c4ccc(S(C)=O)cc4)n3c2)o1 (stereo not drawn)
OUT: 7

IN: Respond only with %Inh recorded for O=c1cc(N2CCOCC2)nc2n(Cc3cccc(Cl)c3Cl)c(C3CC3)nn12 [GSK2358994]
OUT: 0

IN: Respond only with %Inh recorded for Cc1c(Cn2c(C)nn3c(=O)cc(N4CCOC(C)C4)nc23)cccc1C(F)(F)F (stereo not drawn) [GSK2344444]
OUT: 0

IN: Respond only with %Inh recorded for O=C(c1ccc(-c2cc(-c3c[nH]nc3-c3ccccn3)ccn2)cc1)N1CCOCC1 [GW812171]
OUT: 32

IN: Respond only with %Inh recorded for Cl.Cl.Cl.Fc1ccc(-c2ncn(C3CCNCC3)c2-c2ccnc(Nc3ccccc3)n2)cc1 [SB-238039]
OUT: 97.7

IN: Respond only with %Inh recorded for O=C(NCCNc1ccnc(Nc2ccc(F)cc2)n1)c1cc2ccccc2s1 [GSK1379874]
OUT: 0

IN: Respond only with %Inh recorded for NS(=O)(=O)CCc1cccc(Nc2nccc(-c3c(-c4cccc(NC(=O)c5c(F)cccc5F)c4)nn4ccccc34)n2)c1 [GSK336735]
OUT: 0

IN: Respond only with %Inh recorded for COc1cc2c(cc1OC[C@@H](O)CO)ncc1c3ccc(C#N)cc3[nH]c21
OUT: 9

---

Test system: RAF1
Details: concentration: 1 μM, replicates: in singlicate; n = 1
MEASURED PROPERTY: %Inh (%)
Numbers only; they are read as %.

IN: Respond only with %Inh recorded for COc1ccc(CNC(=O)NC2CCN(c3ccnc(Nc4ccc(OC)cc4)n3)C2)cc1 (stereo not drawn)
OUT: 12

IN: Respond only with %Inh recorded for COc1cc2ncn(-c3cc(OCc4sccc4Cl)c(C(N)=O)s3)c2cc1OC
OUT: 12

IN: Respond only with %Inh recorded for CN(C1=C(c2ccccc2)C(=O)NC1=O)c1ccccc1
OUT: 18

IN: Respond only with %Inh recorded for O=C(NOCC1CC1)c1ccc(F)c(F)c1Nc1ccc(I)cc1Cl
OUT: 0

IN: Respond only with %Inh recorded for Cl.Oc1cccc(Nc2ccnc3cc(-c4ccncc4)ccc23)c1
OUT: 22

IN: Respond only with %Inh recorded for O=C1Cc2cc(Nc3nc(NCc4cccc(S(=O)(=O)C(F)(F)F)c4)ncc3C(F)(F)F)ccc2N1
OUT: 0

---

Tested on: PIK3CA
Conditions: concentration: 1 μM, replicates: in singlicate; n = 1
Record form. Attribute: %Inh. Fill in for each entry.
Numbers only; they are read as %.

IN: Respond only with %Inh recorded for O=c1cc(N2CCOCC2)nc2n(Cc3cccc(Cl)c3Cl)c(C3CC3)nn12
OUT: 8

IN: Respond only with %Inh recorded for NS(=O)(=O)c1cccc(-c2ccc3ncc(N4CCOCC4)nc3c2)c1
OUT: 13

IN: Respond only with %Inh recorded for CC(C)(CN)c1nc(-c2ccc(Cl)c(O)c2)c(-c2ccncc2)[nH]1.O=C(O)C(F)(F)F
OUT: 0

IN: Respond only with %Inh recorded for COc1ccc(S(=O)(=O)NC2CCN(c3cc(C)nc(Nc4cccc(C#N)c4)n3)CC2)cc1.O=C(O)C(F)(F)F
OUT: 6

IN: Respond only with %Inh recorded for N#Cc1c(N2CCOCC2)sc(-c2ccn[nH]2)c1-c1ccc(Cl)cc1
OUT: 90

IN: Respond only with %Inh recorded for O=C(Nc1cccc(-c2nn3ncccc3c2-c2ccnc(Nc3cccc(C(F)(F)F)c3)n2)c1)c1c(F)cccc1F
OUT: 0

IN: Respond only with %Inh recorded for COc1cc2ncn(-c3cc(OCc4sccc4Cl)c(C(N)=O)s3)c2cc1OC
OUT: 0

IN: Respond only with %Inh recorded for [2H]C([2H])(c1cccc(C(F)(F)F)c1C)n1ccn2c(=O)nc(N3CCOCC3)cc12
OUT: 0

IN: Respond only with %Inh recorded for CN1c2ccc(CNc3ccc(F)cc3)cc2-c2c(cnn2C)S1(=O)=O
OUT: 0

IN: Respond only with %Inh recorded for c1ccc(-c2n[nH]cc2-c2ccnc3ccccc23)nc1
OUT: 0

IN: Respond only with %Inh recorded for NCC(NC(=O)c1cc(-c2cn[nH]c2)c(-c2ccnc3[nH]ccc23)s1)c1ccccc1.O=C(O)C(F)(F)F.O=C(O)C(F)(F)F (centres unmarked)
OUT: 0

IN: Respond only with %Inh recorded for COc1ccc(Nc2nccc(N3CCC(NC(=O)Nc4cccc(C(C)=O)c4)C3)n2)cc1 (centres unmarked)
OUT: 0

IN: Respond only with %Inh recorded for COc1cc2c(cc1OC[C@@H](O)CO)ncc1c3ccc(C#N)cc3[nH]c21
OUT: 18

IN: Respond only with %Inh recorded for Cc1nnc(-c2ccc3ncc(-c4ccc(S(C)=O)cc4)n3c2)o1 (centres unmarked)
OUT: 3

IN: Respond only with %Inh recorded for O=C(NCCNc1ccnc(Nc2ccc(F)cc2)n1)c1cc2ccccc2s1
OUT: 0

IN: Respond only with %Inh recorded for N#Cc1ccc(-c2cc(-c3c[nH]nc3-c3ccccn3)ccn2)cc1
OUT: 0

IN: Respond only with %Inh recorded for CCc1ccnc(/C=C/c2n[nH]c3cc(Sc4ccccc4C(=O)NC)ccc23)c1
OUT: 0

---

Record form. Attribute: %Inh. Fill in for each entry.
Tested on: AKT1
Conditions: concentration: 1 μM, replicates: in singlicate; n = 1
Numbers only; they are read as %.

IN: Respond only with %Inh recorded for COCCNC(=O)c1ccc(-c2cc(C(=O)NC3CC3)cc(F)c2C)cc1 [GW868318]
OUT: 0

IN: Respond only with %Inh recorded for C[C@@H](Oc1cc(-n2cnc3ccc(NC(=O)NC(C)(C)C)cc32)sc1C(N)=O)c1ccccc1Cl [GSK346294]
OUT: 0

IN: Respond only with %Inh recorded for Cc1ccc(NC(=O)c2ccnc(N3CCN(C)CC3)c2)cc1-c1ccc(C(=O)NCC2CC2)cc1 [GW775604]
OUT: 0

IN: Respond only with %Inh recorded for CCc1nc(-c2cccc(C)c2)c(-c2ccnc(NCc3ccccc3)c2)s1
OUT: 4

IN: Respond only with %Inh recorded for Cc1cccc(-c2nc(Nc3ccc4ncsc4c3)c3ccccc3n2)n1 [GW867588]
OUT: 12

IN: Respond only with %Inh recorded for O=C(NCCCN1CCOCC1)c1cccc(Nc2nccc(Nc3ccc(Oc4ccccc4)cc3)n2)c1 [GW663929]
OUT: 0

IN: Respond only with %Inh recorded for O=C(NCCNc1ccnc(Nc2ccc(F)cc2)n1)c1cc2ccccc2s1 [GSK1379874]
OUT: 0

IN: Respond only with %Inh recorded for Cc1nnc(-c2ccc3occ(-c4ccc(C(C)O)cc4)c3c2)o1 (stereo not drawn)
OUT: 17

IN: Respond only with %Inh recorded for O=c1cc(N2CCOCC2)nc2n(Cc3cccc(C(F)(F)F)c3)ccn12 [GSK2297543]
OUT: 0

IN: Respond only with %Inh recorded for COc1ccc(Nc2nccc(N3CCC(NC(=O)Nc4cc(C)ccc4C)C3)n2)cc1 (stereo not drawn) [GSK1379741]
OUT: 0

IN: Respond only with %Inh recorded for Cc1cccc(-c2nc(-c3ccc(S(C)(=O)=O)cc3)sc2-c2ccncc2)c1
OUT: 0

IN: Respond only with %Inh recorded for Cl.Oc1cccc(Nc2ccnc3cc(-c4ccncc4)ccc23)c1 [GW494601]
OUT: 0

IN: Respond only with %Inh recorded for Cc1cn2c(=O)cc(N3CCOCC3)nc2n1Cc1cccc(Cl)c1Cl [GSK2334006]
OUT: 0

IN: Respond only with %Inh recorded for COc1ccc(CNC(=O)NC2CCN(c3ccnc(Nc4ccc(OC)cc4)n3)C2)cc1 (stereo not drawn) [GSK1379727]
OUT: 0

IN: Respond only with %Inh recorded for COc1ccc(Nc2nccc(N3CCC(NC(=O)Nc4cccc(C(C)=O)c4)C3)n2)cc1 (stereo not drawn) [GSK1379731]
OUT: 0

IN: Respond only with %Inh recorded for Nc1nccc(-c2c(-c3ccc(F)cc3)ncn2C2CCN(CC(F)(F)F)CC2)n1 [SB-236560]
OUT: 0

IN: Respond only with %Inh recorded for O=C(c1ccc(-c2cc(-c3c[nH]nc3-c3ccccn3)ccn2)cc1)N1CCOCC1 [GW812171]
OUT: 5

IN: Respond only with %Inh recorded for O=c1cc(N2CCOCC2)nc2n(Cc3cccc(F)c3)ccn12 [GSK2297430]
OUT: 0

IN: Respond only with %Inh recorded for NS(=O)(=O)c1cccc(-c2ccc3ncc(N4CCOCC4)nc3c2)c1 [GSK1535721]
OUT: 0

IN: Respond only with %Inh recorded for O=c1cc(N2CCOCC2)nc2n(Cc3cccc4ccccc34)ccn12 [GSK2333389]
OUT: 0

IN: Respond only with %Inh recorded for COc1cc2c(cc1OCCN1CCN(C)CC1)ncc1c3ccc(C#N)cc3[nH]c21
OUT: 0

IN: Respond only with %Inh recorded for CNc1ncnc2[nH]ncc12 [SKF-18355]
OUT: 0

IN: Respond only with %Inh recorded for Fc1ccc(-c2ncn(CCCN3CCOCC3)c2-c2cccnc2)cc1 [SB-211743]
OUT: 0

IN: Respond only with %Inh recorded for Cc1cccc(Cn2ccn3c(=O)cc(N4CCOCC4)nc23)c1 [GSK2297542]
OUT: 0

IN: Respond only with %Inh recorded for c1ccc(-c2n[nH]cc2-c2ccnc3ccccc23)nc1 [GW271431]
OUT: 0

IN: Respond only with %Inh recorded for NCC(NC(=O)c1cc(-c2cn[nH]c2)c(-c2ccnc3[nH]ccc23)s1)c1ccccc1.O=C(O)C(F)(F)F.O=C(O)C(F)(F)F (stereo not drawn) [GSK1325775]
OUT: 66

IN: Respond only with %Inh recorded for NS(=O)(=O)c1cccc(-c2ccc3nccc(-c4cccc(S(N)(=O)=O)c4)c3c2)c1 [GW867253]
OUT: 2
